Molecular target: furin, P09958;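 further: purified furin at 1:10 enzyme:substrate in 50 mM HEPES pH 7.5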
Sequence (P09958 whole entry): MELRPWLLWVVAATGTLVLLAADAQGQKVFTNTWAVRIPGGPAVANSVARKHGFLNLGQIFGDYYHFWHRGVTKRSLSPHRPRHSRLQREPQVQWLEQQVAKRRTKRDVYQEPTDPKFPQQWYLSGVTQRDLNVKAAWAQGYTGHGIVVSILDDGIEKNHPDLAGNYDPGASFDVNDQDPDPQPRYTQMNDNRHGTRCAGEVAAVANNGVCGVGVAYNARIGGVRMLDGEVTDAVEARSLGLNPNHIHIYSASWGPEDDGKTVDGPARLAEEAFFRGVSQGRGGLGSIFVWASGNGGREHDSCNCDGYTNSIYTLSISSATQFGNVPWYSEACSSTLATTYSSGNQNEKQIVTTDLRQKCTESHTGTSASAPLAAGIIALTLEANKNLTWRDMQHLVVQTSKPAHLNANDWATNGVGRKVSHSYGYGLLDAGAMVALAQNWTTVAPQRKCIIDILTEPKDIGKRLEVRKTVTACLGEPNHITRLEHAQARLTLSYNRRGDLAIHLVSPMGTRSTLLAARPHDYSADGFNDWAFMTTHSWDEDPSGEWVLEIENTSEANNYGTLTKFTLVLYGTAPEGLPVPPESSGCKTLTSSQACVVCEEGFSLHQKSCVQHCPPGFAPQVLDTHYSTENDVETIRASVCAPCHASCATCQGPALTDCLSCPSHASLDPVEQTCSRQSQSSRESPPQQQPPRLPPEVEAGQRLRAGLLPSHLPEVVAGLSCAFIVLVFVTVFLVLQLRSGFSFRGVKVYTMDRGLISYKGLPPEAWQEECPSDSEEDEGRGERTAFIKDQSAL
Test: furin cleavage Z-score vs untreated control; higher = more cleavage, active = 3.5 or more, inactive = 1 or less, 8 variable residues between constant flanks
Details: 15 min
This is one part of the list. No count for the full screen is at hand.
resultType: furin cleavage Z-score
No unit in the answer, please; the number alone is enough.

Solved entries (count: 6):
1. CAAFRRGVTKAGNASASA [FS-1876] ... -0.144
2. CAARPDYNPPAGNASASA [HC1305] ... -0.196
3. CAPAKRPKRKAGNASASA [FS-1470] ... 12
4. CASTPCSAWLAGNASASA [HC2548] ... -0.849
5. CATLSRSSRSAGNASASA [FS-1292] ... 8.07
6. CAWCTTPCSGAGNASASA [HC1948] ... 0.244

Enquiry: Item under review: CAGLAGAAIGAGNASASA [HC1077] . Reported furin cleavage Z-score?
Return: -0.583

Enquiry: Form field: reported furin cleavage Z-score of CAKAEREKRKAGNASASA [FS-807]
Return: 0.758

Enquiry: Look up furin cleavage Z-score: CAPCERKGRSAGNASASA [FS-1379]
Return: 8.32

Enquiry: # get_value(readout='furin cleavage Z-score', item= CATTPCSASWAGNASASA [HC1883] )
Return: 0.682
